Attribution: ChEMBL document CHEMBL1759962

Property: Activity; scope: individual compounds
Target: Nitric oxide synthase, inducible (Mus musculus) (UniProt P29477)
Sequence (P29477 whole entry): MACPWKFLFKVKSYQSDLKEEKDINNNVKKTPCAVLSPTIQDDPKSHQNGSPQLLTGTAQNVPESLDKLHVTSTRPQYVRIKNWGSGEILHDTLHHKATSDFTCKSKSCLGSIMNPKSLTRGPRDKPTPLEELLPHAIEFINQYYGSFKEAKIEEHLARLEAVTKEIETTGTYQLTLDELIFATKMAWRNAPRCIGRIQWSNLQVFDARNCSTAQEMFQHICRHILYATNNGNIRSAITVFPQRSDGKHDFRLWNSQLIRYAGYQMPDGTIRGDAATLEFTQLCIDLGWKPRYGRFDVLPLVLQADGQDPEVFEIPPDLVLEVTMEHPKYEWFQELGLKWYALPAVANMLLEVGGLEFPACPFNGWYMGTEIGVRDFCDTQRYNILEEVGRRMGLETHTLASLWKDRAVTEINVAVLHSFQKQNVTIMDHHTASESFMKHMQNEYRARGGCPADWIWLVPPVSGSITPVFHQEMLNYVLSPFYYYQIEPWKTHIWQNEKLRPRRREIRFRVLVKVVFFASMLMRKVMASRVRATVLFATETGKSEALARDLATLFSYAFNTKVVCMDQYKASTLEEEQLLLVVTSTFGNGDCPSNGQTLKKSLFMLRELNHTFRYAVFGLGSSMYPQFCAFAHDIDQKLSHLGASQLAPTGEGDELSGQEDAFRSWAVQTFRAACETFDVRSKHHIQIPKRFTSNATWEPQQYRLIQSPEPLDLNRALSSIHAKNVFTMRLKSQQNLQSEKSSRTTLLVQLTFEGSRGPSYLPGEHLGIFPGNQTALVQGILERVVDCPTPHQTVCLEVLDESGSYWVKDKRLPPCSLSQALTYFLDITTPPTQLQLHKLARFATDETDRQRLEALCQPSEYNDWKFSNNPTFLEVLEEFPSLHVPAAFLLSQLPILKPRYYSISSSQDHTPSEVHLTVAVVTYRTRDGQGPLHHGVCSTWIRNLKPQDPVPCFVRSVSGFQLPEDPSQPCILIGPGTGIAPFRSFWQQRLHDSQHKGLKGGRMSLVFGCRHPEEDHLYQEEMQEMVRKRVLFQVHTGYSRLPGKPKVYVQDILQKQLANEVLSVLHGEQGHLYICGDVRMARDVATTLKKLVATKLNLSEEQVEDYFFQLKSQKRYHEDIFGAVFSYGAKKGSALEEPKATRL
Assay: Inhibition of iNOS activity in LPS-stimulated mouse RAW264.7 cells assessed as conversion of L-[…] arginine to L-[3H] citruline per mg of protein at 100 ug/ml after 24 hrs
Format: cell-based
I only need the number, in pmol/min, no unit after it.

{"compound": "CC1(C)C[C@H]2C3=CC[C@@H]4[C@@]5(C)CC[C@H](O)[C@](C)(CO)[C@@H]5CC[C@@]4(C)[C@]3(C)CC[C@@]2(C)[C@H](O)[C@@H]1O [SOYASAPOGENOL A]", "reported measurement": 26.9}
{"compound": "C[C@@H]1O[C@@H](O[C@H]2[C@H](O[C@H]3[C@H](O[C@H]4CC[C@@]5(C)[C@@H](CC[C@]6(C)[C@@H]5CC=C5[C@@H]7CC(C)(C)C[C@@H](O)[C@]7(C)CC[C@]56C)[C@@]4(C)CO)O[C@H](C(=O)O)[C@@H](O)[C@@H]3O)O[C@H](CO)[C@H](O)[C@@H]2O)[C@H](O)[C@H](O)[C@H]1O [SOYASAPONIN I]", "reported measurement": 11.7}

CC1(C)C[C@H]2C3=CC[C@@H]4[C@@]5(C)CC[C@H](O[C@@H]6O[C@H](C(=O)O)[C@@H](O)[C@H](O)[C@H]6O[C@@H]6O[C@H](CO)[C@@H](O)[C@@H](O)[C@H]6O)[C@](C)(CO)[C@@H]5CC[C@@]4(C)[C@]3(C)CC[C@@]2(C)[C@H](O[C@@H]2OC[C@H](O)[C@@H](O)[C@H]2O[C@@H]2O[C@H](CO)[C@@H](O)[C@@H](O)[C@H]2O)[C@@H]1O [SOYASAPONIN A2] has a reported Activity of 14

For CC1(C)C[C@H]2C3=CC[C@@H]4[C@@]5(C)CC[C@H](O[C@@H]6O[C@H](C(=O)O)[C@@H](O)[C@H](O)[C@H]6O[C@@H]6O[C@H](CO)[C@H](O)[C@H](O)[C@H]6O[C@@H]6O[C@H](CO)[C@@H](O)[C@H](O)[C@H]6O)[C@](C)(CO)[C@@H]5CC[C@@]4(C)[C@]3(C)CC[C@@]2(C)[C@H](O[C@@H]2OC[C@H](O)[C@@H](O)[C@H]2O[C@@H]2O[C@H](CO)[C@@H](O)[C@@H](O)[C@H]2O)[C@@H]1O [SOYASAPONIN A1] the compound record lists Activity as 11.4

----------
Target: Nitric oxide synthase, inducible (Mus musculus) (UniProt P29477)
Assay: Inhibition of iNOS activity in LPS-stimulated mouse RAW264.7 cells assessed as conversion of L-[…] arginine to L-[3H] citruline per mg of protein at 200 ug/ml after 24 hrs
Assay type: cell-based
# Lookup of reported Activity keyed by entry
Your answer should be a plain number; it is taken to be in pmol/min.

{"compound": "CC1(C)C[C@@H](O)[C@]2(C)CC[C@]3(C)C(=CC[C@@H]4[C@@]5(C)CC[C@H](O)[C@](C)(CO)[C@@H]5CC[C@]43C)[C@@H]2C1 [SOYASAPOGENOL B]", "Activity / pmol/min": 27.1}

Here's the next entry for you.
Reported Activity for CC1(C)C[C@H]2C3=CC[C@@H]4[C@@]5(C)CC[C@H](O)[C@](C)(CO)[C@@H]5CC[C@@]4(C)[C@]3(C)CC[C@@]2(C)[C@H](O)[C@@H]1O [SOYASAPOGENOL A] was 27
